Tested on: C. albicans
Format: cell-based, Candida albicans
Test Parameters: 24 h
Where no end group is shown, it is not given here.
Quick reference: MIC of the listed items.
State just the number; it will be interpreted in µM.

{"Substance": "FLSLIPKAIKAVSALAKKL-NH2 [SR]", "Property Label": "MIC", "Reading": 32}
{"Substance": "FLSLIPHAISAVSALAKHL-NH2 [PSTO2, phylloseptin-TO2]", "Property Label": "MIC", "Reading": 32}
{"Substance": "FLSLIPKAIKAVKALAKKL-NH2 [SR2]", "Property Label": "MIC", "Reading": 32}
{"Substance": "FLSLIPKAISAVSALAKKL-NH2 [Peptide 18K]", "Property Label": "MIC", "Reading": 32}

Next up:
Given the substance FLSLIPKAISAVSALAKHL-NH2 [Peptide 7K] , what is its reported MIC?
32

----------
Test system: E. coli (ATCC 8739)
Format: cell-based, Escherichia coli
Test Parameters: ATCC 8739, 24 h
Where no end group is shown, it is not given here.
Here, each record is paired with measured MBC data.
# unit: µM | format: bare number

{"Substance": "FLSLIPKAIKAVKALAKKL-NH2 [SR2]", "Test Target": "E. coli (ATCC 8739)", "MBC / µM": 2}

Any idea what its MBC is? The substance is FLSLIPKAISAVSALAKHL-NH2 [Peptide 7K]
8

What do we get for FLSLIPKAIKAVSALAKKL-NH2 [SR] ?
2

----------
System: S. aureus (ATCC 6538) biofilm
Type: cell-based, Staphylococcus aureus
Test Parameters: ATCC 6538, 24 h
Where no end group is shown, it is not given here.
Collected MBEC values appear next to each entry.
I only need the number, in µM, no unit after it.

{"Substance": "FLSLIPKAISAVSALAKKL-NH2 [Peptide 18K]", "MBEC (µM)": 32}
{"Substance": "FLSLIPKAISAVSALAKHL-NH2 [Peptide 7K]", "MBEC (µM)": 32}
{"Substance": "FLSLIPKAIKAVKALAKKL-NH2 [SR2]", "MBEC (µM)": 16}

# context switch: different substance, same MBEC
Name the recorded MBEC for FLSLIPKAIKAVSALAKKL-NH2 [SR] .
16
